# TARGET OR SYSTEM: Follistatin-related protein 3 (Homo sapiens) (UniProt O95633)
# Sequence (O95633 whole entry, looked up): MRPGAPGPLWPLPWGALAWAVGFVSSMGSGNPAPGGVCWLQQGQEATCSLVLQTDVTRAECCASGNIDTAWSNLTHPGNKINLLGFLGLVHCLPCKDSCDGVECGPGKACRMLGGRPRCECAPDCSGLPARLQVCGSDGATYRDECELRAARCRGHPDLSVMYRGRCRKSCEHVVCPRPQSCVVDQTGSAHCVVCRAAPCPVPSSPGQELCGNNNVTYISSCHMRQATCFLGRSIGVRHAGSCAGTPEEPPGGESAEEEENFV
# ASSAY EXPLANATION: FSTL3 binders on small-molecule microarrays, primary screen, biochemical, small-molecule microarray, 635 nm fluorescence (AID 1105);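 also: score merges emission near 667 nm and signal to noise per printed spot across three slides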
# MEASUREMENT SETUP: FSTL3 binding, higher = more signal
VALUE KIND: composite z-score
Hey, just send me the number, nothing else.

Observe how each entry below is paired with its result.
| MOLECULE | composite z-score |
| --- | --- |
| [N-]=[N+]=NCc1ccccc1C[C@]1(C(=O)NCCN2CCOCC2)N=C(c2ccc(OCCCO)cc2)O[C@H]1c1ccccc1N=[N+]=[N-] | 0.504 |
| O=C1OCCC=C[C@H]2OC34C=CCN(Cc5ccccc5)C(=O)[C@H]3N(CCCO)C(=O)[C@@H]4C12 (stereo partly drawn) | -0.512 |
| COc1ccc(C(O)C2C=CC3C(=O)N(c4ccccc4)C(=O)C3N2Nc2ccc([N+](=O)[O-])cc2)cc1OCc1ccccc1 (stereo not drawn) | 0.763 |
| [N-]=[N+]=NCc1ccccc1C[C@@]1(C(=O)NCC(O)CO)N=C(c2ccc(OCCCO)cc2)O[C@@H]1c1ccccc1CN=[N+]=[N-] (stereo partly drawn) | -0.203 |
| C=CCC(OC(C)=O)[C@@H]1[C@@H](N(Cc2cccc3ccccc23)C(=O)c2ccc(C)cc2)c2cc(OCCCO)ccc2N1C(=O)Cc1ccc(OC)cc1 (stereo partly drawn) | 0.492 |
| CC(=O)C1=CCC(c2ccccc2)N(S(=O)(=O)c2ccc(C)cc2)C1 (stereo not drawn) | 1.01 |
| CN(C)CCCNC(=O)[C@@]1(Cc2ccccc2I)c2ccccc2C(=O)N(Cc2ccccc2C(F)(F)F)[C@H]1c1ccc(CO)cc1 | -1.34 |
| COc1ccc(C(=O)Nc2cccc(CN3C(=O)[C@]4(O[C@H](CC(=O)N5CCC[C@H]5CO)[C@@H]([Si](C)(C)c5ccc(OC)cc5)[C@@H]4C)c4ccccc43)c2)cc1 | 0.737 |
| O=C1OCC=C[C@H]2OC34C=CCN(c5ccc(Cl)cc5)C(=O)[C@H]3N(CCCCCCO)C(=O)[C@@H]4[C@@H]12 (stereo partly drawn) | -1.58 |
| CCC[C@@H]1C=C(C(=O)O)[C@H](c2ccc(C)cc2)N1S(=O)(=O)c1ccc(C)cc1 | 0.192 |

composite z-score in this record for CC(=O)NCCCC[C@@H]1NC(=O)[C@@H]2C[C@H](C(=O)NCCCCCCNC(=O)CS)[C@H](c3ccc(O)cc3)N2C1=O : -0.353

The recorded composite z-score for O=C1OCCC=C[C@H]2OC34C=CCN(Cc5ccccc5)C(=O)[C@H]3N(CCCCCCO)C(=O)[C@@H]4C12 (stereo partly drawn) is -0.435

For COC(=O)C[C@H]1O[C@]2(C(=O)N(Cc3ccccc3)c3ccc(NC(C)=O)cc32)[C@@H](C)[C@@H]1[Si](C)(C)c1ccc(OC)cc1 the molecule record lists composite z-score as 0.719

response.value for NCCCCCCNC(=O)[C@H]1C[C@H]2C(=O)NCC(=O)N2[C@H]1c1cccc(OCCO)c1 (field: composite z-score) = 0.563

What the record says about CC=CC(O)C1C=CC2C(=O)N(c3ccccc3)C(=O)C2N1Nc1ccc(C(C)C)cc1 (stereo not drawn) : composite z-score is 1.3

The molecule COC(=O)[C@@]1(Cc2ccccc2)[C@H]2c3cc(C(=O)N(C)C)n(Cc4cc(C)n(C)n4)c3C[C@H]2CN1C(=O)c1ccccc1 showed composite z-score equal to 0.642

Looking up COc1ccc([Si](C)(C)[C@@H]2[C@@H](CC(=O)N3CCC[C@H]3CO)O[C@]3(C(=O)N(C)c4c(Br)cc(C)cc43)[C@H]2C)cc1 , I see its composite z-score listed as 1.42

Entry under test: CC(C)(C)N1CC=CC23O[C@@H]4/C=C\CCCOC(=O)C4[C@H]2C(=O)N(CCO)[C@@H]3C1=O (stereo partly drawn) . Its composite z-score was -1.28

Value of composite z-score reported for the molecule C=CC[C@@]1(C(=O)N2CCOCC2)N=C(c2ccc(OCCCO)cc2)O[C@@H]1c1ccccc1N=[N+]=[N-] is 0.606

Reported composite z-score of CC(=O)NCCCC[C@@H]1NC(=O)[C@@H]2C[C@H](C(=O)NCCCCN(C)C)[C@H](c3ccc(O)cc3)N2C1=O : -0.723

Per the record, C=C[C@@H](COC(C)=O)N(Cc1ccc([N+](=O)[O-])cc1)S(=O)(=O)c1ccc(Br)cc1 has composite z-score of 0.352

Looking up COc1ccc([Si](C)(C)[C@@H]2[C@@H](CCn3cc([C@H](O)c4ccccc4)nn3)O[C@]3(C(=O)N(Cc4cccc(N5CCOC5=O)c4)c4ccccc43)[C@H]2C)cc1 , I see its composite z-score listed as -0.995

Where do these numbers come from? They come from PubChem BioAssay.
